Each recorded value in this set is attributed to ChEMBL document CHEMBL5303762.

- Target: UniProt P21918
- Sequence (P21918 whole entry): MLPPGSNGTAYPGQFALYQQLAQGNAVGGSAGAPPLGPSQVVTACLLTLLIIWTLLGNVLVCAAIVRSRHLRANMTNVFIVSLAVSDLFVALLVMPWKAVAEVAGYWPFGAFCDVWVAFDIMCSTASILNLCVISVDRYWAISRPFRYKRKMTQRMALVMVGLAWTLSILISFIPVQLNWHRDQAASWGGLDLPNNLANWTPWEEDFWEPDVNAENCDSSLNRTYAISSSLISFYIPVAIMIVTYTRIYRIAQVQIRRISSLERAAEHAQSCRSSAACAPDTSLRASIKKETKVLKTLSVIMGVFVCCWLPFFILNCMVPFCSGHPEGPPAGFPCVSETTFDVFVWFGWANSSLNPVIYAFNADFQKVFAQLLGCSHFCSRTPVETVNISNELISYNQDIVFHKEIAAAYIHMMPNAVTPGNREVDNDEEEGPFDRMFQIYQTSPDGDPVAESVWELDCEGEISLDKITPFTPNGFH
- Assay explanation: GPCRScan assay: inhibition of D5
- Parameters: radioligand conc. used [nm] 2.0 – 3.0, parental cells HEKT
- Condition label: read-out: Ki
Readout name: Ki (µM)
Give the number; µM is assumed, so skip it.

Specify the recorded Ki for CCn1c(CNC(=O)c2nc(Cl)cnc2N)[n+](CC)c2ccc(C(=O)N(C)CCN(C)C)cc21 , system: UniProt P21918.
4.07

* * *

- Target: L-type calcium channel alpha-1C (dihydropyridine site) (Rattus norvegicus, UniProt P22002)
- Sequence (P22002 whole entry): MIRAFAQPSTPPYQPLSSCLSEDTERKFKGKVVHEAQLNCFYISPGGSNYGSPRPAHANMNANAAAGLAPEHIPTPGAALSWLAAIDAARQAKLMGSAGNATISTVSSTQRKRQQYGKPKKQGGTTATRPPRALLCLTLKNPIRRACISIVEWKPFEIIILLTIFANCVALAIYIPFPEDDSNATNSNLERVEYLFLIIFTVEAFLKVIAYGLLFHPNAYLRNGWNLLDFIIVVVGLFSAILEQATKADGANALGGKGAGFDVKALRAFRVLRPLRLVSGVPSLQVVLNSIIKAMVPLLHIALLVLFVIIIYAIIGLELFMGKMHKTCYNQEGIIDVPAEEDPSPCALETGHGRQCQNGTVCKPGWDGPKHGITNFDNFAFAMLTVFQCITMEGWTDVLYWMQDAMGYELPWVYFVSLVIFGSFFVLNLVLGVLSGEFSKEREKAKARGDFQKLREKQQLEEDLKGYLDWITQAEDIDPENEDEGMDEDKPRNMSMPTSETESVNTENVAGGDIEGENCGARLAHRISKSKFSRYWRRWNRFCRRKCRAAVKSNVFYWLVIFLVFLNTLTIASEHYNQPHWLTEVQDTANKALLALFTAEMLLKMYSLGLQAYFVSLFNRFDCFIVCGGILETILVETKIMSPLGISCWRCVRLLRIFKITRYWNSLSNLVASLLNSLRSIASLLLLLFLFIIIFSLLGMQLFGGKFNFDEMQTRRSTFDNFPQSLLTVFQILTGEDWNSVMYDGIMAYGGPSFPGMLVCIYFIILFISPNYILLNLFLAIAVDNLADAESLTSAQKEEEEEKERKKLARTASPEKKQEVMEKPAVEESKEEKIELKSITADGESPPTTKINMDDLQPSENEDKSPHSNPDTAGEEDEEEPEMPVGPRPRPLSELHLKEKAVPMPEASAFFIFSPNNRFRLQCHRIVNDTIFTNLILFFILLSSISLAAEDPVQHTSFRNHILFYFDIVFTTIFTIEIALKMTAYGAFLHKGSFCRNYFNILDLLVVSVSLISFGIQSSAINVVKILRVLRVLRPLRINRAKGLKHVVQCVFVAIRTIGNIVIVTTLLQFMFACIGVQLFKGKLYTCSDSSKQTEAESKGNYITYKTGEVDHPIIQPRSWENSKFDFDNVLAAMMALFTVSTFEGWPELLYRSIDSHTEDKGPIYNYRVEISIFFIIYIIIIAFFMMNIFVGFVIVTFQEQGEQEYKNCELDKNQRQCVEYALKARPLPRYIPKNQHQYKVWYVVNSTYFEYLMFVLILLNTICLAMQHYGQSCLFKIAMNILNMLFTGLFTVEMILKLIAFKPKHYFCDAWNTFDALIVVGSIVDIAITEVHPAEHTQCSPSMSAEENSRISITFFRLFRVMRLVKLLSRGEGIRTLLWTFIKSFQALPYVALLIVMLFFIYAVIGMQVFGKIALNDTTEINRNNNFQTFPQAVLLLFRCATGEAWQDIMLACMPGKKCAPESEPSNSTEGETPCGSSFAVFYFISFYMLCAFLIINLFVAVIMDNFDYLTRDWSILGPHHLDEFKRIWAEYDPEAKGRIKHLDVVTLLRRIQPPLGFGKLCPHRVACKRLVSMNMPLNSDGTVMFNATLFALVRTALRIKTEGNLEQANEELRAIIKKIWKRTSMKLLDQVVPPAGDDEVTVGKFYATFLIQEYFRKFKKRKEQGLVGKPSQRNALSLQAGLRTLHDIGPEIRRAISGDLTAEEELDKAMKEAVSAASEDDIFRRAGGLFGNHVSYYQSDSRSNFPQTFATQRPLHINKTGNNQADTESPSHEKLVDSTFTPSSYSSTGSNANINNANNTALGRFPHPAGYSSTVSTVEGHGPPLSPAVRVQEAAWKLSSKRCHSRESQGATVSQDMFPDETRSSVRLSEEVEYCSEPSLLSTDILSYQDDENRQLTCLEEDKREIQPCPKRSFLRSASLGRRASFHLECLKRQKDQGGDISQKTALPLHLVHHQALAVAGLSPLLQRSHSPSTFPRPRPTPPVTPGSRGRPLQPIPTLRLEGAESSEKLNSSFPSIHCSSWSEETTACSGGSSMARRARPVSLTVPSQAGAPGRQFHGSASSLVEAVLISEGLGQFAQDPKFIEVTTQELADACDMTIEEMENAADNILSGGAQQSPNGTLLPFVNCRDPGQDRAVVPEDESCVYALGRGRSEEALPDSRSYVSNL
- Assay explanation: CA+/DHPSI/R Eurofins SafetyScreen44 (BI)
- Condition label: compound concentration 10 uM, read-out: % Ctrl
Readout name: activity at 10 µM

Specify the recorded activity at 10 µM for CCn1c(CNC(=O)c2nc(Cl)cnc2N)[n+](CC)c2ccc(C(=O)N(C)CCN(C)C)cc21 , system: L-type calcium channel alpha-1C (dihydropyridine site) (Rattus norvegicus, UniProt P22002).
89% (not active)

Specify the recorded activity at 10 µM for CCn1c(CNC(=O)c2ncc(C)nc2N)[n+](CC)c2ccc(C(=O)N(C)CN(C)C)cc21 , system: L-type calcium channel alpha-1C (dihydropyridine site) (Rattus norvegicus, UniProt P22002).
87% (not active)

* * *

- Target: voltage-gated potassium channel (IKs; KCNQ1/KCNE1 as curated) (Rattus norvegicus, UniProt P15383+Q9Z0N7)
- Sequence (Q9Z0N7 whole entry): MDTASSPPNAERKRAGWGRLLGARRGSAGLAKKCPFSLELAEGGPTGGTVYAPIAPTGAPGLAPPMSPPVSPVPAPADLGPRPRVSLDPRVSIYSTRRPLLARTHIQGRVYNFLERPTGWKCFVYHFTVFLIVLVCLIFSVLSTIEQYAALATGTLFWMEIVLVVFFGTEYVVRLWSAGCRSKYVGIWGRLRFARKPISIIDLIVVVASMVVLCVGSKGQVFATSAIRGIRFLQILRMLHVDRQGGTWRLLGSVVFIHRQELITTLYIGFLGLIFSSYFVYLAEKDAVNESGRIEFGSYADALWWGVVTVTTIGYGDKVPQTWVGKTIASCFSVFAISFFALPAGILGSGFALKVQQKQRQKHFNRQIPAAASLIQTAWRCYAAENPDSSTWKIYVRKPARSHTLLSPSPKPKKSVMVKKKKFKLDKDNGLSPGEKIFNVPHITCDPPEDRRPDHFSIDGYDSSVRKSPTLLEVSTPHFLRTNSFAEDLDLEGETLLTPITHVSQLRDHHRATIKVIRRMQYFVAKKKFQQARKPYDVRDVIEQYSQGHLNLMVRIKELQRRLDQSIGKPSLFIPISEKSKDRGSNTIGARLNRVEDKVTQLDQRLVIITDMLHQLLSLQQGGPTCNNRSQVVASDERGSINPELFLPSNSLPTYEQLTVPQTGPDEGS
- Sequence (P15383 whole entry): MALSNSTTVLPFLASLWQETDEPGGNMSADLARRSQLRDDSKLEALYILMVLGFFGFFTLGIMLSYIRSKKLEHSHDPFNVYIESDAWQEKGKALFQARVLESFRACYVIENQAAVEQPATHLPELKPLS
- Assay explanation: K+/VOLT/RA Eurofins SafetyScreen44 (BI)
- Format: protein-complex assay
- Condition label: compound concentration 10 uM, read-out: % Ctrl
Readout name: activity at 10 µM

Give reported activity at 10 µM value for CCn1c(CNC(=O)c2ncc(C)nc2N)[n+](CC)c2ccc(C(=O)N(C)CN(C)C)cc21
103% (not active)

Give reported activity at 10 µM value for CCn1c(CNC(=O)c2nc(Cl)cnc2N)[n+](CC)c2ccc(C(=O)N(C)CCN(C)C)cc21
99% (not active)

* * *

- Target: voltage-gated sodium channel (site 2) (Rattus norvegicus, UniProt F1LQQ7+O08562+O88420+O88457+P04774+P04775+P08104+P15389+P15390+Q62968)
- Assay explanation: NA+/SITE2/R Eurofins SafetyScreen44 (BI)
- Format: protein assay
- Condition label: compound concentration 10 uM, read-out: % Ctrl
Readout name: activity at 10 µM

Give reported activity at 10 µM value for CCn1c(CNC(=O)c2nc(Cl)cnc2N)[n+](CC)c2ccc(C(=O)N(C)CCN(C)C)cc21
66% (not active)

Give reported activity at 10 µM value for CCn1c(CNC(=O)c2ncc(C)nc2N)[n+](CC)c2ccc(C(=O)N(C)CN(C)C)cc21
87% (not active)

* * *

- Target: MAO-A (amine oxidase [flavin-containing] A) (Rattus norvegicus, UniProt P21396)
- Sequence (P21396 whole entry): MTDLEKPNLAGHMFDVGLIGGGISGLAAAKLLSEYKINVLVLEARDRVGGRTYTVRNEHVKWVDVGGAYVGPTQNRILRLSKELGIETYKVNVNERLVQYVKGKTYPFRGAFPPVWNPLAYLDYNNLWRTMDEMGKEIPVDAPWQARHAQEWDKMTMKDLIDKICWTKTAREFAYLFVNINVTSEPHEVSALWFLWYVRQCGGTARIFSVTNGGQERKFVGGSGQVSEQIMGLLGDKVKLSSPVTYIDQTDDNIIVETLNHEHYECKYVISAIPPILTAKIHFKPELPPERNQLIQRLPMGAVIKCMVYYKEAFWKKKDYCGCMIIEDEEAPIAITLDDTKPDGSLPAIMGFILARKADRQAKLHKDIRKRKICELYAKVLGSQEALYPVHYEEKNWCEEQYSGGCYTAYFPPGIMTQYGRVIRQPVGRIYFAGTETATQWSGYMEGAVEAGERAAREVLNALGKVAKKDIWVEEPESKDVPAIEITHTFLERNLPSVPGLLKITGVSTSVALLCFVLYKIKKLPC
- Assay explanation: MAO-A_ANTAG Eurofins SafetyScreen44 (BI)
- Design: scale not given: the % may be the effect or the level left
- Condition label: compound concentration 10 uM, read-out: % Ctrl
Readout name: activity at 10 µM

Specify the recorded activity at 10 µM for CCn1c(CNC(=O)c2nc(Cl)cnc2N)[n+](CC)c2ccc(C(=O)N(C)CCN(C)C)cc21 , system: MAO-A (amine oxidase [flavin-containing] A) (Rattus norvegicus, UniProt P21396).
89% (not active)

* * *

- Target: UniProt P21397
- Sequence (P21397 whole entry): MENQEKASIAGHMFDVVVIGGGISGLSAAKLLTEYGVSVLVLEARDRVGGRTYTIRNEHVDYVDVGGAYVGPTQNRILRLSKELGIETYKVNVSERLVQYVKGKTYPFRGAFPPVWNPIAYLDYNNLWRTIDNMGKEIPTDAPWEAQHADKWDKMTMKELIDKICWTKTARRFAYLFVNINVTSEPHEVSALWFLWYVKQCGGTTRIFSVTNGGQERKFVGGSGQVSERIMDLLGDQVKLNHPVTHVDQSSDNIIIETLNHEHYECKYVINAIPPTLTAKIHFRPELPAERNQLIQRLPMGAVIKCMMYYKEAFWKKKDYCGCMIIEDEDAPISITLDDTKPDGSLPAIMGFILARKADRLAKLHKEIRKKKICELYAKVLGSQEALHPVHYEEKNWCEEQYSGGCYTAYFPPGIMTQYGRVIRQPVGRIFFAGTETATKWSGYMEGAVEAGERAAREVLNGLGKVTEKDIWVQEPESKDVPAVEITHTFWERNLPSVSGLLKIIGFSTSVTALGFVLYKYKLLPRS
- Assay explanation: MAO-A_ANTAG Eurofins SafetyScreen44 (BI)
- Set-up: scale not given: the % may be the effect or the level left
- Condition label: compound concentration 10 uM, read-out: % Ctrl
Readout name: activity at 10 µM

Give reported activity at 10 µM value for CCn1c(CNC(=O)c2ncc(C)nc2N)[n+](CC)c2ccc(C(=O)N(C)CN(C)C)cc21
95% (not active)
